- system.name: recombinant human KLK5 (human) (UniProt Q9Y337)
- Sequence (Q9Y337 67-293): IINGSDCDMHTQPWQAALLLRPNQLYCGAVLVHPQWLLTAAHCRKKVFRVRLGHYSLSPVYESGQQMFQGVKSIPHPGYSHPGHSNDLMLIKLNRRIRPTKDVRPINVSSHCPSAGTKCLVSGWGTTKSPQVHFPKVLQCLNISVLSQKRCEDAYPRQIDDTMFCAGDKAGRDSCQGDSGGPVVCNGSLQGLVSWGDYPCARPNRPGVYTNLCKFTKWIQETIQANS
- assay.comment: pro-KLK1 LC/MS assay, 0.5 nM KLK5, 300 nM pro-KLK1; box column 3 of 3; no unit printed, nM per text
Exercise: state measured pIC50 for each of the binders provided.
// scale note: pIC50 = -log10(conc_M); give the bare number

Look up and report measured pIC50 for this entry: 9F2 (antibody, V domains shown) VH: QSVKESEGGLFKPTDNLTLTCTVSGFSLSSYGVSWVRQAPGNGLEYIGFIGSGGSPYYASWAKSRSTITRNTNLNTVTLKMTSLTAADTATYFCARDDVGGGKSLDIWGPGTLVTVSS VL: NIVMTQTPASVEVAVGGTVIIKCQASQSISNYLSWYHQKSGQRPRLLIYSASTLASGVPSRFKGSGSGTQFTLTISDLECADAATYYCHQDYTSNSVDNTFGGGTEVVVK
9.74

Report pIC50, nothing else, for this binder: 9H5 (antibody, V domains shown) VH: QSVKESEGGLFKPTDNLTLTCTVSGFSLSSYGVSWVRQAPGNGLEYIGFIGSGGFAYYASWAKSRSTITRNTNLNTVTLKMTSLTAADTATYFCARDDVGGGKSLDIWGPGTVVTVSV VL: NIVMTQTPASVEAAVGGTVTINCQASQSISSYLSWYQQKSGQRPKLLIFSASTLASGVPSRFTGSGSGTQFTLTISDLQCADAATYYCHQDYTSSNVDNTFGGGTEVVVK
9.99

Give me measured pIC50, please, for this binder: 10C8 (antibody, V domains shown) VH: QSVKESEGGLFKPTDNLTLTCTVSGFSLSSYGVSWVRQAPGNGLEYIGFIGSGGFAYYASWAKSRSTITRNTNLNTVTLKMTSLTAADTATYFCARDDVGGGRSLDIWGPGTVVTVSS VL: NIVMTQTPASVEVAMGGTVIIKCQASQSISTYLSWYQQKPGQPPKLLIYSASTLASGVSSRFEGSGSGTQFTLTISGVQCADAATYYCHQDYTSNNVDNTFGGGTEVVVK
9.83

Report measured pIC50; entry is 8B7 (antibody, V domains shown) VH: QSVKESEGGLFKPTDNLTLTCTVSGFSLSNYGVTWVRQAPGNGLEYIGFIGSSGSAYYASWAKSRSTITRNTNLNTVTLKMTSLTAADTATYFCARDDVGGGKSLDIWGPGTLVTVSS VL: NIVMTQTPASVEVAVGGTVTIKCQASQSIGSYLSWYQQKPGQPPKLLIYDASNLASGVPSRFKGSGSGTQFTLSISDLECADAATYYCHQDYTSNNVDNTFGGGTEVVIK
9.98

Determine its reported pIC50: 10H3 (antibody, V domains shown) VH: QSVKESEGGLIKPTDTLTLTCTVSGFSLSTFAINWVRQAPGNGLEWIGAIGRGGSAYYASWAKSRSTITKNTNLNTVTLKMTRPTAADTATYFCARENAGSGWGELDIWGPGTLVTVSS VL: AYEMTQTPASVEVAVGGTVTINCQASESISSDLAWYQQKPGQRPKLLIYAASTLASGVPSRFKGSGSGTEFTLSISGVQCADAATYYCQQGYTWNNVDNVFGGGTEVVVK
9.89

Where do these numbers come from? They come from patent US20200040103A1.
